This collection of values is drawn from ChEMBL document CHEMBL1145323.

# Test system: HOP-62
# test-summary: Antiproliferative activity against human HOP62 cell line
# Type: functional, cell-based
# condition-label: Homo sapiens, HOP-62; read-out: IC50
quantity-measured: IC50 (µM)
Give the value in µM but do not write µM after it.

(Q) Which IC50 reading was recorded for the molecule COC(=O)C[C@H]1[C@]2(C)C3=C(C)[C@H](c4ccoc4)C[C@H]3O[C@@H]2[C@H](O)[C@@H]2[C@]1(C)C(=O)C=C[C@@]2(C)C(=O)NCc1ccc(OC)cc1 ?
(A) 102

(Q) Can you check COC(=O)C[C@H]1[C@]2(C)C3=C(C)[C@H](c4ccoc4)C[C@H]3O[C@@H]2[C@@H]2OC(=O)[C@]3(C)C=CC(=O)[C@@]1(C)[C@@H]23 [NIMBOLIDE] next?
(A) 10.4

(Q) Can you check COC(=O)C[C@H]1[C@]2(C)C3=C(C)[C@H](c4ccoc4)C[C@H]3O[C@@H]2[C@H](O)[C@@H]2[C@]1(C)C(=O)C=C[C@@]2(C)C(=O)NCC(C)C next?
(A) 4.83
